Provenance of the data: patent US20180338980A1

Parameter Emax: see the listing below.
tested_system: P2X4 (Homo sapiens, UniProt Q99571)
protocol_description: Assay B: human P2X4 receptor cell line, mitochondrial photina luminescence (agonist Bz-ATP at EC50)
Type: cell-based
Set-up: host or cells: HEK 293 (recombinant, constitutively expressing; with mitochondrial photina in Assay B)
condition_notes: HEK human P2X4 cell line, photina luminescence, agonist Bz-ATP at EC50, average; read-out: human P2X4 Assay B avg Efficacy
The figure you give is taken to be in %; do not add the unit.

Study these solved cases before continuing.
INSERT INTO assay_data (molecule, readout_number) VALUES
  ('NS(=O)(=O)c1cc(NC(=O)Cc2ccccc2Cl)ccc1OC1CCC1 [Example 205]', 74),
  ('NS(=O)(=O)c1cc(NC(=O)Cc2ccccc2Cl)ccc1OCc1ccccc1F [Example 137]', 98),
  ('Cc1sc(-c2cccnc2)nc1Oc1ccc(NC(=O)Cc2ccccc2Cl)cc1S(N)(=O)=O [Example 239]', 99),
  ('NS(=O)(=O)c1cc(NC(=O)Cc2ccccc2Cl)ccc1Oc1cccc(C(=O)N2CCOCC2)c1 [Example 052]', 66),
  ('NS(=O)(=O)c1cc(NC(=O)Cc2ccccc2Cl)ccc1OCc1ccc(F)cc1 [Example 143]', 71);

[in] Look at this molecule and give its reported Emax. NS(=O)(=O)c1cc(NC(=O)Cc2ccccc2)ccc1Oc1ccccc1Cl [Example 076]
[out] 74

[in] Next molecule: NS(=O)(=O)c1cc(NC(=O)Cc2ccc3c(c2)OCCO3)ccc1Oc1ccc(Cl)cc1 [Example 276]
[out] 35

* * *

tested_system: mouse P2X4 receptors (Mus musculus, UniProt Q9JJX6)
Sequence (Q9JJX6 whole entry): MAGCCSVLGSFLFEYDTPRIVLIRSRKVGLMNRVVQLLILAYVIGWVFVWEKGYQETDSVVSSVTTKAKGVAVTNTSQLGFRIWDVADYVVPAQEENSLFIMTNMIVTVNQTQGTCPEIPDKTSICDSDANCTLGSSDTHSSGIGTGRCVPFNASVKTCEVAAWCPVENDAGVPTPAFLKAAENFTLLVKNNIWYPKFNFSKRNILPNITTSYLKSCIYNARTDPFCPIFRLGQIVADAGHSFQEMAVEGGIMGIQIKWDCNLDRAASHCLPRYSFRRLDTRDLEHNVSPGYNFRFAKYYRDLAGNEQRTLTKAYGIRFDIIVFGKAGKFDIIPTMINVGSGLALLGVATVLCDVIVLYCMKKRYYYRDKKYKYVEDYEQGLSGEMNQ
protocol_description: Assay B: mouse P2X4 receptor cell line, Fluo8 fluorescence FLIPR (agonist Bz-ATP at EC50)
condition_notes: HEK mouse P2X4 cell line, agonist Bz-ATP at EC50, average
measured_parameter: IC50 (µM)
Hi! Could you send only the number? It should be in µM, unit omitted.

[in] Test system mouse P2X4 receptors (Mus musculus, UniProt Q9JJX6); read-out IC50; what value for `CN(C)C(=O)c1cccc(CC(=O)Nc2ccc(Oc3cccc(Cl)c3)c(S(N)(=O)=O)c2)c1` ?
[out] 0.947

[in] Further, for `NC(=O)c1cccc(Oc2ccc(NC(=O)Cc3ccccc3Cl)cc2S(N)(=O)=O)c1` ?
[out] 0.805

[in] Consider next the compound `NS(=O)(=O)c1cc(NC(=O)Cc2ccccc2Cl)ccc1OCc1cccc(Cl)c1` in the same way.
[out] 0.612

[in] Also check `NS(=O)(=O)c1cc(NC(=O)Cc2cccc(F)c2Cl)ccc1Oc1cccc(Cl)c1`
[out] 0.387

[in] Next: `NS(=O)(=O)c1cc(NC(=O)Cc2ccccc2Cl)ccc1OCC1CCCC1`
[out] 1.03

* * *

Catalogue of pIC50 readings, one per entry.
tested_system: P2X4 (Homo sapiens, UniProt Q99571)
Sequence (Q99571 1-388): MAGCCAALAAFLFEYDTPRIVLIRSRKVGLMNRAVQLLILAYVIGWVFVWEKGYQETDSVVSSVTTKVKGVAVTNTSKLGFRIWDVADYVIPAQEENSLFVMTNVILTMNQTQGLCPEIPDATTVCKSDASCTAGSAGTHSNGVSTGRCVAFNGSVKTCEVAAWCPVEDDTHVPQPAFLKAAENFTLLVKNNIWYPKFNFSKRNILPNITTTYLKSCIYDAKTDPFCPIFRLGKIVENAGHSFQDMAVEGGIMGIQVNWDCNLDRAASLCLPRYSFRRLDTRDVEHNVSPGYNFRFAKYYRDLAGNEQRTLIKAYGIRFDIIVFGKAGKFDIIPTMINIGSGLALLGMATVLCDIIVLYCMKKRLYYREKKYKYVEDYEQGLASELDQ
protocol_description: Assay B: human P2X4 receptor cell line, mitochondrial photina luminescence (agonist Bz-ATP at EC50)
Type: cell-based
Parameters: host or cells: HEK 293 (recombinant, constitutively expressing; with mitochondrial photina in Assay B)
condition_notes: HEK human P2X4 cell line, photina luminescence, agonist Bz-ATP at EC50, average
Kindly note that pIC50 refers to -log10 of the concentration in mol/L and answer with the value alone.

Recorded pIC50, per entry:
INSERT INTO assay_data (compound, readout_number) VALUES
  ('Cc1cccc(Oc2ccc(NC(=O)Cc3ccccc3Cl)cc2S(N)(=O)=O)c1 [Example 018]', 7.33),
  ('NS(=O)(=O)c1cc(NC(=O)Cc2ccccc2Cl)ccc1OCC1CCCOC1 (stereo not shown) [Example 165]', 7.01),
  ('COc1ccc(C#N)cc1Oc1ccc(NC(=O)Cc2ccccc2Cl)cc1S(N)(=O)=O [Example 034]', 6.76);

Then there is this compound:
[in] Tell me the measured pIC50 of NS(=O)(=O)c1cc(NC(=O)Cc2ccccc2Cl)ccc1Oc1cccc(N2CCCCC2)c1 [Example 049] , please.
[out] 6.11

* * *

tested_system: P2X4 (Homo sapiens)
Sequence (Q99571 1-388): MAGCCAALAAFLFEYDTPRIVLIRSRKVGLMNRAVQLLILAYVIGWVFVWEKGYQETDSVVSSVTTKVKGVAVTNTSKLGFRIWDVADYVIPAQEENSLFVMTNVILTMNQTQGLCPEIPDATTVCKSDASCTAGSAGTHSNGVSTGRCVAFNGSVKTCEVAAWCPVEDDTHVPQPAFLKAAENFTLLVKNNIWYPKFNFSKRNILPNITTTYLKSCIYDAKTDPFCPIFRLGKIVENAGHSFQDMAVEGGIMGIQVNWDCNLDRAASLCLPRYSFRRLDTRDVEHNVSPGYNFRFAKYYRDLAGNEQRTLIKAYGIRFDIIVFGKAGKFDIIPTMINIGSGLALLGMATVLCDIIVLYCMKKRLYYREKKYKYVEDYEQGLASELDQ
protocol_description: Assay A: human P2X4 receptor cell line, FLIPR calcium assay (Fluo-8, agonist Bz-ATP at EC80)
Type: cell-based
Design: host or cells: HEK 293 (recombinant, constitutively expressing; with mitochondrial photina in Assay B)
condition_notes: percentage of maximal inhibition; HEK human P2X4 cells, Fluo-8 FLIPR; read-out: human P2X4 Assay A avg Efficacy
# Emax listing for each entry below

# annotated cases, reported Emax shown
INSERT INTO results (molecule, measured_parameter, result) VALUES
  ('NS(=O)(=O)c1cc(NC(=O)Cc2ccccc2Cl)ccc1Oc1cccc(C(F)F)c1 [Example 031]', 'Emax', '76%'),
  ('NS(=O)(=O)c1cc(NC(=O)Cc2ccccc2Cl)ccc1Oc1cccc(OC(F)(F)F)c1 [Example 006]', 'Emax', '87%'),
  ('NS(=O)(=O)c1cc(NC(=O)Cc2ccccc2Cl)ccc1Oc1cccc(-n2cnnc2)c1 [Example 020]', 'Emax', '90%'),
  ('CC(C)(O)c1ccc(Oc2ccc(NC(=O)Cc3ccccc3Cl)cc2S(N)(=O)=O)cc1 [Example 264]', 'Emax', '62%');

Okay, now this molecule:
[in] State the recorded Emax for this entry: NS(=O)(=O)c1cc(NC(=O)Cc2ccccc2C(F)F)cnc1Oc1cccc(Cl)c1 [Example 295]
[out] 85%

* * *

Entries and their measured Emax follow.
tested_system: P2X4 (Homo sapiens)
Sequence (Q99571 1-388): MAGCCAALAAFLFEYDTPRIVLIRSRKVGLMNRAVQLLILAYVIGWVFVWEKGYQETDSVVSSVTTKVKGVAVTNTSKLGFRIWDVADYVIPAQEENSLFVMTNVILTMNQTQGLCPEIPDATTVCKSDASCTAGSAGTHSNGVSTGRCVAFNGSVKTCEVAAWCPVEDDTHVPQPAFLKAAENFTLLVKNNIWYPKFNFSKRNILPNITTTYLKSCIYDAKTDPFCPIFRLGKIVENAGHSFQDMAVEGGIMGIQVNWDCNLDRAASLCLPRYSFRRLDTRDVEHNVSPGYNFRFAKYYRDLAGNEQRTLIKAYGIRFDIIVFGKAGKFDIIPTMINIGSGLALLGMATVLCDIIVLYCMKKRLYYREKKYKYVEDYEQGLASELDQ
protocol_description: Assay B: human P2X4 receptor cell line, mitochondrial photina luminescence (agonist Bz-ATP at EC50)
Assay type: cell-based
Set-up: host or cells: HEK 293 (recombinant, constitutively expressing; with mitochondrial photina in Assay B)
condition_notes: HEK human P2X4 cell line, photina luminescence, agonist Bz-ATP at EC50, average; read-out: human P2X4 Assay B avg Efficacy
Write down the numeric answer in % and omit the unit.

INSERT INTO results (compound, measured_parameter, measure_unit, readout_number) VALUES
  ('NS(=O)(=O)c1cc(NC(=O)Cc2ccc(Cl)cc2)ccc1Oc1ccc(Cl)cc1', 'Emax', '%', 58);

# context switch: different compound, same Emax
[in] I have this compound here, `Cc1cccc(CC(=O)Nc2ccc(Oc3cccc(Cl)c3)c(S(N)(=O)=O)c2)n1` , and I need its recorded Emax.
[out] 54

* * *

List of Emax values.
tested_system: P2X4 (Homo sapiens, UniProt Q99571)
protocol_description: Assay A: human P2X4 receptor cell line, FLIPR calcium assay (Fluo-8, agonist Bz-ATP at EC80)
Format: cell-based
Set-up: host or cells: HEK 293 (recombinant, constitutively expressing; with mitochondrial photina in Assay B)
condition_notes: percentage of maximal inhibition; HEK human P2X4 cells, Fluo-8 FLIPR; read-out: human P2X4 Assay A avg Efficacy
Form field: result (number plus unit)

Before answering, review these 5 worked examples.
INSERT INTO measurements (compound, tested_system, measured_parameter, result) VALUES
  ('NS(=O)(=O)c1cc(NC(=O)Cc2ccccc2Cl)ccc1OC1CCOCC1', 'P2X4 (Homo sapiens, UniProt Q99571)', 'Emax', '60%'),
  ('COc1ccc(Cl)c(CC(=O)Nc2ccc(Oc3cccc(Cl)c3)c(S(N)(=O)=O)c2)c1', 'P2X4 (Homo sapiens, UniProt Q99571)', 'Emax', '85%'),
  ('Cc1cc(NC(=O)Cc2ccccc2Cl)cc(S(N)(=O)=O)c1Oc1cccc(Cl)c1', 'P2X4 (Homo sapiens, UniProt Q99571)', 'Emax', '94%'),
  ('NS(=O)(=O)c1cc(NC(=O)Cc2ccccc2Cl)ccc1Oc1ccc(N2CCOCC2=O)cc1', 'P2X4 (Homo sapiens, UniProt Q99571)', 'Emax', '74%'),
  ('NS(=O)(=O)c1cc(NC(=O)Cc2ccccc2Cl)ccc1Oc1cnc(Cl)nc1', 'P2X4 (Homo sapiens, UniProt Q99571)', 'Emax', '54%');

[in] What measured Emax goes with `NS(=O)(=O)c1cc(NC(=O)Cc2ccccc2Cl)cnc1Oc1cccc(C(F)(F)F)c1` ?
[out] 90%

[in] Now the compound CC(C(=O)Nc1ccc(Oc2cccc(Cl)c2)c(S(N)(=O)=O)c1)c1c(F)cccc1Cl (centres unmarked)
[out] 76%
